SUBJECT_OF_TEST: ScMyo3
EXPERIMENT: SPOT peptide array binding signal intensity (averaged, normalized) (arbitrary units (background-subtracted, floor 0; scale differs between SH3 domains)); higher = stronger binding of the SH3 domain to the peptide
PROPERTY: SPOT peptide array binding signal intensity
Give the figure by itself; no unit, no explanation.

"PALPSLPPPPLLNVD" has a reported SPOT peptide array binding signal intensity of 1950

"GAGERPRLVPRPINV" has a reported SPOT peptide array binding signal intensity of 47.5

"LFMKGTPEFPKSGFS" has a reported SPOT peptide array binding signal intensity of 21
